Tested on: Danio rerio Tg(wt1b:EGFP) embryo, pronephros
Assay: glomerular separation, fold change vs DMSO control; higher = glomeruli further apart (abnormal)
Conditions: 25 µM; exposure: 24-48 hpf
Structures can show the parent of a compound that is named as a salt.
Record yes (1) whenever glomerular separation is at 1 or higher; record no (0) when lower.

compound	assigned_label
C[N+]1(C)CCC(OC(=O)C(O)(c2ccccc2)C2CCCC2)C1 (stereo not given) [Glycopyrrolate]	yes (1)
CO[C@H]1/C=C/O[C@@]2(C)Oc3c(C)c(O)c4c(O)c(c5c(nc6cc(C)ccn65)c4c3C2=O)NC(=O)/C(C)=C\C=C\[C@H](C)[C@H](O)[C@@H](C)[C@@H](O)[C@@H](C)[C@H](OC(C)=O)[C@@H]1C [Rifaximin]	no (0)
CN1CCC[C@@H]1CCO[C@](C)(c1ccccc1)c1ccc(Cl)cc1 [Clemastine fumarate]	no (0)
COc1ccc(C(=O)c2ccccc2)c(O)c1 [Oxybenzone]	no (0)
COc1cc(C(=O)NCc2ccc(OCCN(C)C)cc2)cc(OC)c1OC [Trimethobenzamide hydrochloride]	yes (1)
CCn1cc(C(=O)O)c(=O)c2ccc(C)nc21 [Nalidixic acid sodium salt]	yes (1)
C[C@@H]1NC(=O)NC1=O [Methylhydantoin-5-(L)]	no (0)
CN1CC2c3ccccc3Oc3ccc(Cl)cc3C2C1 (stereo not given) [Asenapine maleate]	no (0)
Cc1ccccc1OCC(O)CO (stereo not given) [Mephenesin]	yes (1)
NC12CC3CC(CC(C3)C1)C2 [Adamantamine fumarate]	no (0)
CCC[C@@H]1C[C@@H](C(=O)N[C@@H]([C@H]2O[C@H](SC)[C@H](O)[C@@H](O)[C@H]2O)[C@@H](C)O)N(C)C1 [Lincomycin hydrochloride]	no (0)
CC(=O)N(CC(C)C(=O)O)c1c(I)cc(I)c(N)c1I (stereo not given) [Iocetamic acid]	no (0)
CCN(CC)CCNC(=O)COc1ccc(OC)cc1 [Mefexamide hydrochloride]	yes (1)
O=C(NCC(O)CO)c1c(I)c(C(=O)NCC(O)CO)c(I)c(N(CCO)C(=O)CO)c1I (stereo not given) [Ioversol]	no (0)
O=S(=O)(O)CCS [Mesna]	no (0)
CC(C)(CO)C(O)C(=O)NCCCO (stereo not given) [Panthenol (D)]	no (0)
CCCC(=O)Nc1ccc(OCC(O)CNC(C)C)c(C(C)=O)c1 (stereo not given) [Acebutolol hydrochloride]	yes (1)
Cc1ccnc2c1NC(=O)c1cccnc1N2C1CC1 [Nevirapine]	yes (1)
CN(C)CCOC(c1ccc(Cl)cc1)c1ccccn1 (stereo not given) [Carbinoxamine maleate salt]	no (0)
CC1(C)O[C@@H]2[C@@H](CO[C@@]3(COS(N)(=O)=O)OC(C)(C)O[C@@H]23)O1 [Topiramate]	yes (1)
COc1ccc2[nH]c([S+]([O-])Cc3ncc(C)c(OC)c3C)nc2n1 (stereo not given) [Tenatoprazole]	yes (1)
Cc1cn([C@H]2C=C[C@@H](CO)O2)c(=O)[nH]c1=O [Stavudine]	no (0)
CCS(=O)(=O)CCn1c([N+](=O)[O-])cnc1C [Tinidazole]	no (0)
CN1CCN(C2=Nc3ccccc3Oc3ccc(Cl)cc32)CC1 [Loxapine succinate]	yes (1)
NNCCc1ccccc1 [Phenelzine sulfate]	no (0)
Cc1nc2ccccn2c(=O)c1CCN1CCC(C(=O)c2ccc(F)cc2)CC1 [Pirenperone]	no (0)
NC(=O)c1cnccn1 [Pyrazinamide]	no (0)
Nc1nc(=O)n([C@@H]2CS[C@H](CO)O2)cc1F [(-)-Emtricitabine]	yes (1)
C[C@H](CCC(=O)O)[C@H]1CC[C@H]2[C@@H]3[C@H](O)C[C@@H]4C[C@H](O)CC[C@]4(C)[C@H]3CC[C@]12C [Chenodiol]	yes (1)
N=C(N)NCC1COC2(CCCCC2)O1 (stereo not given) [Guanadrel sulfate]	no (0)
N[C@@H](C(=O)N[C@@H]1C(=O)N2C(C(=O)O)=C(Cl)CC[C@H]12)c1ccccc1 [Loracarbef]	yes (1)
CC(=O)OC[C@H]1O[C@@H]([S-])[C@H](OC(C)=O)[C@@H](OC(C)=O)[C@@H]1OC(C)=O.CCP(CC)CC.[Au+] [Auranofin]	yes (1)
